- STUDY_SYSTEM: Catechol O-methyltransferase (Homo sapiens)
- ASSAY_PROCEDURE: Primary Screen for Target Class Profiling of Small Molecule Inhibitors of Methyltransferases
- EXPERIMENTAL_CONTEXT: purified enzyme, MTase-Glo SAH luminescence; at 40 µM
Hit rate of the full screen: of about 25,000 compounds, about 970 (3.9%) were called active. Inconclusive results (about 8%) are left out. The rule behind the calls is not given here. This excerpt belongs to a sample that is enriched for actives.
Reply using exactly one outcome from active, inactive

• CCc1ccc(C2c3cccn3-c3ccccc3CN2C(=O)Nc2cc(C)cc(C)c2)cc1 (configuration not stated) = inactive

Let us examine a further case.
Data request: What is the recorded call for this molecule in the test? CO[C@H]1C[C@H](O[C@H]2CC[C@]3(CO)[C@H]4CC[C@]5(C)[C@@H](C6=CC(=O)OC6)CC[C@]5(O)[C@@H]4CC[C@]3(O)C2)O[C@H](C)[C@H]1O
Data returned: inactive
